Each recorded value in this set is attributed to paper PMC11263391.

- Experimental System: ASB7-Elongin B/C (Homo sapiens)
- Construct: The human ASB7 (residues 11–318) was amplified via PCR; His8-SUMO (pET28-MKH8SUMO) (N, cleaved yes); made in house; host or cells: Escherichia coli BL21 (DE3)
- Sequence (Q9H672 11-318): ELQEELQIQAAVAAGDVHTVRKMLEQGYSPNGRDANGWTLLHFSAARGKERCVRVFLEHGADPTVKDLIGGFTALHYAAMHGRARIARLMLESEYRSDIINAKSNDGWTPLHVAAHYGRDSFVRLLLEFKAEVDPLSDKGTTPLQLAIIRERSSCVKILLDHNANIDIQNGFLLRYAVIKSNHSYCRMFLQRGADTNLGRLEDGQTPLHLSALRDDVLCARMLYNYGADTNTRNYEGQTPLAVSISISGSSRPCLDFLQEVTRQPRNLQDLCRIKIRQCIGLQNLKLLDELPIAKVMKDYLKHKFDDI
- Sequence (Q15370 1-104 partner limits assumed): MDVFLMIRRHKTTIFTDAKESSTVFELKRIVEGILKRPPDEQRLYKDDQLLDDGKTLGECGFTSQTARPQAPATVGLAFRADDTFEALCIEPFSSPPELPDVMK
- Sequence (Q15369 17-112 partner limits assumed): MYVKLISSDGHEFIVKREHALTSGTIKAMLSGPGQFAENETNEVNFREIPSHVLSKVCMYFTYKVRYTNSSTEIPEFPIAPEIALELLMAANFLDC
- Assay Procedure: ITC of degron peptides with wild-type ASB7-Elongin B/C
- Type: binding
Residues, ends and D or L forms follow the SMILES beside them.
Quantity Measured: Kd

Given CSCC[C@H](NC(=O)[C@H](CC(C)C)NC(=O)[C@H](CO)NC(=O)[C@H](CCC(=O)O)NC(=O)[C@H](CC(C)C)NC(=O)[C@@H](N)CCC(=O)O)C(=O)O [ELESLM] (H-ELESLM-OH) , state its recorded Kd.
> 30 µM
